The origin of these recorded values is patent US4175081A.

# System: Cotton (CT)
# test.protocol: Pre-emergence herbicide test
# Assay type: in vivo, Gossypium hirsutum var. DPL smooth leaf
# stated.conditions: Gossypium hirsutum, 336 h, 2 lb/acre, two weeks after treatment
Could you please mark criterion met for values of pest or weed control at 2241.7 g/ha below 40% and criterion not met for values at or above it?

• CNC(=O)N(C)c1nnc(C(F)(F)F)s1 [Example 36] = criterion not met
• CNC(=O)Nc1nnc(C(F)(F)C(F)(F)F)s1 [Example 68] = criterion not met
• CNC(=O)Nc1nnc(C(C)(C)C)s1 [Example 86] = criterion met
• CNC(=O)N(C)c1nnc(C(C)(C)C)s1 [Example 42] = criterion met

====

# System: Turnip (TP)
# test.protocol: Pre-emergence herbicide test
# Assay type: in vivo, Brassica sp.
# stated.conditions: Brassica rapa, pre-emergence, 336 h; 4 lb/acre; two weeks after treatment
Measured pest or weed control at 4483.4 g/ha values are reported for all entries that follow.
quantity: pest or weed control at 4483.4 g/ha (%)

* CCCS(=O)(=O)c1nnc(NC(=O)NC)s1 [Example 62] | 40
* CNC(=O)Nc1nnc(C(F)F)s1 [Example 67] | 100
* CNC(=O)Nc1nnc(SCC#N)s1 [Example 88] | 70
* CNC(=O)Nc1nnc(S(C)(=O)=O)s1 [Example 33] | 100
* CCCC(C)c1nnc(NC(=O)NC)s1 (stereo not drawn) [Example 83] | 10
* CNC(=O)Nc1nnc(C(C)C)s1 [Example 82] | 20
* CCN(C(=O)NC)c1nnc(C(F)(F)F)s1 [Example 37] | 100
* CCS(=O)(=O)c1nnc(N(C)C(=O)NC)s1 [Example 91] | 100
* CCS(=O)(=O)c1nnc(NC(=O)NC)s1 [Example 81] | 80
* CNC(=O)Nc1nnc(-c2cccc(C(F)(F)F)c2)s1 [Example 73] | 60
* CNC(=O)Nc1nnc(C(F)(F)C(F)(F)F)s1 [Example 68] | 60
* CNC(=O)Nc1nnc(SC(C)C)s1 [Example 40] | 100
* CCSc1nnc(N(C)C(=O)NC)s1 [Example 89] | 90
* CNC(=O)N(C)c1nnc(C(C)(C)C)s1 [Example 42] | 90
* CN(C)C(=O)N(C)c1nnc(C(F)(F)F)s1 [Example 4] | 100
* CCCSc1nnc(N(C)C(=O)N(C)C)s1 [Example 66] | 100
* CCCCS(=O)(=O)c1nnc(N(C)C(=O)NC)s1 [Example 92] | 90
* CCCCSc1nnc(N(C)C(=O)NC)s1 [Example 90] | 80
* CNC(=O)Nc1nnc(C(F)(F)F)s1 [Example 1] | 90
* CNC(=O)Nc1nnc(C2CC2)s1 [Example 85] | 0
* CNC(=O)N(C)c1nnc(C(F)(F)F)s1 [Example 36] | 100
* CN(C)C(=O)N(C)c1nnc(C(C)(C)C)s1 [Example 43] | 100
* CCCSc1nnc(N(C)C(=O)NC)s1 [Example 69] | 50
* CCOC(=O)C(Sc1nnc(NC(=O)NC)s1)C(=O)OCC [Example 79] | 20

====

# Tested on: Cotton (CT)
# test.protocol: Post-emergence herbicide test
# Format: in vivo, Gossypium hirsutum var. DPL smooth leaf
# stated.conditions: Gossypium hirsutum, post-emergence, 336 h; 8 lb/acre; two weeks after treatment
If the reported pest or weed control at 8966.8 g/ha equals or exceeds 90%, assign YES. If not, assign NO.

* CNC(=O)Nc1nnc(-c2ccccc2)s1 [Example 34] | NO
* CNC(=O)N(C)c1nnc(C(F)(F)F)s1 [Example 36] | YES
* CNC(=O)Nc1nnc(C(C)(C)C)s1 [Example 86] | YES
* O=C(Nc1ccc(Cl)c(Cl)c1)Nc1nnc(C(F)(F)F)s1 [Example 16] | NO
* CNC(=O)Nc1nnc(-c2ccc(Cl)cc2Cl)s1 [Example 75] | NO
* CNC(=O)Nc1nnc(S(C)(=O)=O)s1 [Example 33] | YES
* CCCSc1nnc(N(C)C(=O)NC)s1 [Example 69] | YES
* CNC(=O)Nc1nnc(-c2ccc(Cl)cc2)s1 [Example 71] | NO
